Listed here are molecules together with their documented normalized growth.
Experiment: chemical genetic growth profiling, strain panel (AID 1159580);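 note: tested at 20 µM; growth read once vehicle control cultures reached saturation at 30 °C; 1 = growth at the plate median or of vehicle wells; lower values mean less growth of the strain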
Conditions: S. cerevisiae deletion strains, growth OD, locus YEL061C, strain CIN8, hits give low values
The campaign covered roughly 5,500 compounds. About 2,000 (36%) were called active. Another 18% or so got no clear call; they are omitted. This is one part of the list.
Answer field: number only, no words.

// known answers, use as guide
COc1ccc(-c2cc(=O)c3c(O)cc(O)cc3o2)cc1	0.987
Cc1onc(-c2ccccc2)c1C(=O)On1c(-c2ccccc2)nc2ccccc2c1=O	0.933
COc1ccc(-c2cc(=O)c3c(O)c(OC)c(OC)cc3o2)cc1O	1

Moving on to another molecule below.
Query `O=c1c(O)cc([C@H]2Oc3cc(O)cc(O)c3C[C@H]2O)cc2c([C@H]3Oc4cc(O)cc(O)c4C[C@H]3O)cc(O)c(O)c12` yields normalized growth of 1.01

Data credit: PubChem BioAssay AID1159580
